Listed here are molecules together with their documented pIC50.
Target: human CXCR3A (Homo sapiens (Human), UniProt P49682)
Sequence (P49682 whole entry): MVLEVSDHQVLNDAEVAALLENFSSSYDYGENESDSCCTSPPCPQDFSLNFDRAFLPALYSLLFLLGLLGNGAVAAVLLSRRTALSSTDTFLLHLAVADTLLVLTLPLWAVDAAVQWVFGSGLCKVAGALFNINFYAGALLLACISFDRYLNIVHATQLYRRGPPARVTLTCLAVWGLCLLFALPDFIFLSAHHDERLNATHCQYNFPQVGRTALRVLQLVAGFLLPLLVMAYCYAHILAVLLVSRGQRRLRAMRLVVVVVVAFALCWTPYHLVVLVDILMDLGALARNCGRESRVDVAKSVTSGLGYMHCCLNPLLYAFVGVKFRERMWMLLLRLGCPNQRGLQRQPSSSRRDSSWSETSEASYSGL
Test: FLIPR assay (inhibition of CXCL10-induced calcium signal)
Settings: engineered CHO-K1 cells expressing human CXCR3A coupled to Galpha(16); Fluo-4-AM; CXCL10 agonist 20 nM; mean values where determined several times
// pIC50 here means minus log10 of the molar concentration (mol/L)

Here are 3 molecules together with their reported answers.
COc1nc(OC)nc(N2CCc3c(C(F)(F)F)ccc(N4CCN(C(=O)Cn5cnc6cccnc65)[C@H](C)C4)c3C2)n1 [Example 19]
7.93
C[C@@H]1CN(c2ccc(C#N)c3c2CN(C(=O)OCc2ccccc2)CC3)CCN1C(=O)Cn1cnc2cccnc21 [Example 146]
7.81
C[C@@H]1CN(c2cccc3c2CN(c2ncccn2)CC3)CCN1C(=O)Cn1cnc2cccnc21 [Example 102]
7.54

Field: next molecule
Q: Any idea what pIC50 came out for COc1ncc(N2CCc3c(C(F)(F)F)ccc(N4CCN(C(=O)CCn5cccn5)[C@H](C)C4)c3C2)cn1 [Example 27] on human CXCR3A (Homo sapiens (Human), UniProt P49682)?
Result: 6.04

====

Target: human CXCR3A (Homo sapiens (Human), UniProt P49682)
Assay: FLIPR assay (inhibition of CXCL10-induced calcium signal)
Assay type: cell-based
Conditions: engineered CHO-K1 cells expressing human CXCR3A coupled to Galpha(16); Fluo-4-AM; CXCL10 agonist 20 nM; mean values where determined several times
Reported Endpoint: pIC50
pIC50 field: float, defined as -log10 of concentration (mol/L).

CCCc1ncc(N2CCc3c(C(F)(F)F)ccc(N4CCN(C(=O)Cn5cnc6cccnc65)[C@H](C)C4)c3C2)cn1 [Example 22]
7.97
Cc1ccnn1CC(=O)N1CCN(c2ccc(C(F)(F)F)c3c2CN(c2nc4ccc(F)cc4s2)CC3)C[C@H]1C [Example 41]
7.29
Cc1cc(C)n(CC(=O)N2CCN(c3ccc(C(F)(F)F)c4c3CN(c3cnc(N(C)C)nc3)CC4)C[C@H]2C)n1 [Example 13]
8.07
C[C@@H]1CN(c2cccc3c2CN(c2ccc(C(F)(F)F)nc2)CC3)CCN1C(=O)Cn1cnc2cccnc21 [Example 100]
8.90
CCOc1ncc(N2CCc3c(C(F)(F)F)ccc(N4CCN(C(=O)Cn5cnc6cccnc65)CC4)c3C2)cn1 [Example 28]
8.62
C[C@@H]1CN(c2cccc3c2CN(C(=O)Cn2cnc4ccccc42)CC3)CCN1C(=O)Cn1cnc2cccnc21 [Example 86]
6.16

Could you now consider this next compound?
Q: Requested read-out: pIC50. Entry: C[C@@H]1CN(c2cccc3c2CN(C(=O)OCc2ccccc2)CC3)CCN1C(=O)Cn1cnc2cccnc21 [Example 60]
Result: 8.10

====

Biological target: UniProt P49682
Assay: FLIPR assay (inhibition of CXCL10-induced calcium signal)
Settings: engineered CHO-K1 cells expressing human CXCR3A coupled to Galpha(16); Fluo-4-AM; CXCL10 agonist 20 nM; mean values where determined several times
Reported Endpoint: pIC50
// pIC50 here means minus log10 of the molar concentration (mol/L)

Cc1ccnn1CC(=O)N1CCN(c2ccc(C(F)(F)F)c3c2CN(c2cnc(N(C)C)nc2)CC3)C[C@H]1C
8.39

Q: Look up pIC50: "CCOc1ncc(N2CCc3c(C(F)(F)F)ccc(N4CCN(C(=O)Cn5nc(C)cc5C)CC4)c3C2)cn1"
Result: 7.52

Q: // pIC50 lookup, key: "CCOc1ncc(N2CCc3c(F)ccc(N4CCN(C(=O)Cn5nc(C)nc5C)[C@H](C)C4)c3C2)cn1"
Result: 7.61
